The measurements presented in this section are drawn from ChEMBL document CHEMBL1177855.

- System: Bacillus subtilis
- EXPERIMENT_SUMMARY: Antibacterial activity against Bacillus subtilis ATCC 6633 after 24 hrs by MTT assay
- Type: functional
- MEASUREMENT_SETUP: ATCC 6633, 24 h
Labelling field: enter yes (1) if recorded MIC is less than 10 µg/mL. Enter no (0) if it equals or exceeds that cut-off.

Exercise: I'd appreciate it if you could check whether O=C(Nc1cc(Cl)cc(Cl)c1)N1CCOCC1 has MIC smaller than 10 µg/mL.
Solution: yes (1)

New cases:
Exercise: I'd appreciate it if you could check whether O=C(Nc1ccc(Br)cc1)N1CCOCC1 has MIC smaller than 10 µg/mL.
Solution: no (0)
